# APPLIED CONDITIONS: 353.15 K; 30000 kPa; Liquid; Vibrating wire viscometry
// N strictly below 0.4 mPa·s in viscosity; Y otherwise

MOL SMILES: Cc1ccc(C)c(C)c1
ASSIGNED LABEL: Y

MOL SMILES: CCCCCCC
ASSIGNED LABEL: N

MOL SMILES: CCCCCCCCCCCC
ASSIGNED LABEL: Y

* * *

# APPLIED CONDITIONS: 353.15 K; 50000 kPa; Liquid; Vibrating wire viscometry
Quick rule for you: viscosity under 0.5 mPa·s gets MET, anything else gets NOT MET.

MOL SMILES: Cc1ccccc1
ASSIGNED LABEL: MET

MOL SMILES: Cc1ccc(C)c(C)c1
ASSIGNED LABEL: NOT MET

MOL SMILES: CCCCCCCCCCCC
ASSIGNED LABEL: NOT MET

MOL SMILES: CCCCCCC
ASSIGNED LABEL: MET

# credit: the NIST ThermoML archive (doi:10.1016/j.jct.2015.12.021)
